Reported normalized RNA/DNA level with ligand (log10) values are given for each entry in this list.
B1: library; a variant is named by its letters at N, in order (parent)
chain: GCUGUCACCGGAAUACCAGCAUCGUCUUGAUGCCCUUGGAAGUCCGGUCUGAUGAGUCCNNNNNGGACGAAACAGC

Variants of: B1
Test method notes: normalized RNA/DNA level with ligand (relative to sTRSVctl = 100) (log10 (% of sTRSVctl)); higher = less ribozyme self-cleavage, higher mRNA level
Condition summary: ligand concentration (+) RNA-Seq: 5 mM, HEK293T, reporter: mCherry (pCS4076), ligand present: yes
Recorded metric: normalized RNA/DNA level with ligand (log10)

{"columns": ["Monomer sequence", "Value observed"],
 "data": [
  ["GCUGUCACCGGAAUACCAGCAUCGUCUUGAUGCCCUUGGAAGUCCGGUCUGAUGAGUCCACUCAGGACGAAACAGC", 1.97],
  ["GCUGUCACCGGAAUACCAGCAUCGUCUUGAUGCCCUUGGAAGUCCGGUCUGAUGAGUCCCGAUAGGACGAAACAGC", 1.95],
  ["GCUGUCACCGGAAUACCAGCAUCGUCUUGAUGCCCUUGGAAGUCCGGUCUGAUGAGUCCAAUGAGGACGAAACAGC", 1.96],
  ["GCUGUCACCGGAAUACCAGCAUCGUCUUGAUGCCCUUGGAAGUCCGGUCUGAUGAGUCCGCAAUGGACGAAACAGC", 1.96],
  ["GCUGUCACCGGAAUACCAGCAUCGUCUUGAUGCCCUUGGAAGUCCGGUCUGAUGAGUCCCUCUCGGACGAAACAGC", 2.03],
  ["GCUGUCACCGGAAUACCAGCAUCGUCUUGAUGCCCUUGGAAGUCCGGUCUGAUGAGUCCACAUCGGACGAAACAGC", 2],
  ["GCUGUCACCGGAAUACCAGCAUCGUCUUGAUGCCCUUGGAAGUCCGGUCUGAUGAGUCCCCUCUGGACGAAACAGC", 1.93],
  ["GCUGUCACCGGAAUACCAGCAUCGUCUUGAUGCCCUUGGAAGUCCGGUCUGAUGAGUCCAGAGAGGACGAAACAGC", 1.95],
  ["GCUGUCACCGGAAUACCAGCAUCGUCUUGAUGCCCUUGGAAGUCCGGUCUGAUGAGUCCACGAAGGACGAAACAGC", 1.97],
  ["GCUGUCACCGGAAUACCAGCAUCGUCUUGAUGCCCUUGGAAGUCCGGUCUGAUGAGUCCACAUUGGACGAAACAGC", 2],
  ["GCUGUCACCGGAAUACCAGCAUCGUCUUGAUGCCCUUGGAAGUCCGGUCUGAUGAGUCCUAUGAGGACGAAACAGC", 1.92],
  ["GCUGUCACCGGAAUACCAGCAUCGUCUUGAUGCCCUUGGAAGUCCGGUCUGAUGAGUCCACUGCGGACGAAACAGC", 2.01],
  ["GCUGUCACCGGAAUACCAGCAUCGUCUUGAUGCCCUUGGAAGUCCGGUCUGAUGAGUCCCCUAAGGACGAAACAGC", 1.98],
  ["GCUGUCACCGGAAUACCAGCAUCGUCUUGAUGCCCUUGGAAGUCCGGUCUGAUGAGUCCAACGCGGACGAAACAGC", 2.13],
  ["GCUGUCACCGGAAUACCAGCAUCGUCUUGAUGCCCUUGGAAGUCCGGUCUGAUGAGUCCUCCUCGGACGAAACAGC", 2.03],
  ["GCUGUCACCGGAAUACCAGCAUCGUCUUGAUGCCCUUGGAAGUCCGGUCUGAUGAGUCCCCUGAGGACGAAACAGC", 2.02],
  ["GCUGUCACCGGAAUACCAGCAUCGUCUUGAUGCCCUUGGAAGUCCGGUCUGAUGAGUCCUAUAAGGACGAAACAGC", 2.02],
  ["GCUGUCACCGGAAUACCAGCAUCGUCUUGAUGCCCUUGGAAGUCCGGUCUGAUGAGUCCUAGGAGGACGAAACAGC", 1.96],
  ["GCUGUCACCGGAAUACCAGCAUCGUCUUGAUGCCCUUGGAAGUCCGGUCUGAUGAGUCCGAACCGGACGAAACAGC", 2],
  ["GCUGUCACCGGAAUACCAGCAUCGUCUUGAUGCCCUUGGAAGUCCGGUCUGAUGAGUCCUGACUGGACGAAACAGC", 1.99],
  ["GCUGUCACCGGAAUACCAGCAUCGUCUUGAUGCCCUUGGAAGUCCGGUCUGAUGAGUCCCCAGCGGACGAAACAGC", 1.96],
  ["GCUGUCACCGGAAUACCAGCAUCGUCUUGAUGCCCUUGGAAGUCCGGUCUGAUGAGUCCGAGGGGGACGAAACAGC", 1.91]
]}
